Assay: Plasma protein binding assay, mouse plasma (mPPB)
Type: in vitro ADME
Details: 5 μM, equilibrium dialysis 4 hours at 37° C.
READOUT KIND: mPPB (% free)

COMPOUND | RESULT
O=C(Nc1cc(Oc2ccc3c(c2)CC(c2nc(-c4ccccc4)c[nH]2)CO3)ncn1)C1CC1 (stereo not drawn) [Compound 151] | <0.1 % free
CC1CC1C(=O)Nc1cc(Oc2ccc3c(c2)CC(c2nc(-c4ccccc4)c[nH]2)CO3)ccn1 (stereo not drawn) [Compound 157] | <0.1 % free
O=C(Nc1cc(Oc2ccc3c(c2)CC(c2nc(-c4ccccc4)c[nH]2)CO3)ccn1)C1CC(F)(F)C1 (stereo not drawn) [Compound 139] | <0.1 % free
